- tested_target: Kappa-type opioid receptor (Rattus norvegicus) (UniProt P34975)
- Sequence (P34975 whole entry): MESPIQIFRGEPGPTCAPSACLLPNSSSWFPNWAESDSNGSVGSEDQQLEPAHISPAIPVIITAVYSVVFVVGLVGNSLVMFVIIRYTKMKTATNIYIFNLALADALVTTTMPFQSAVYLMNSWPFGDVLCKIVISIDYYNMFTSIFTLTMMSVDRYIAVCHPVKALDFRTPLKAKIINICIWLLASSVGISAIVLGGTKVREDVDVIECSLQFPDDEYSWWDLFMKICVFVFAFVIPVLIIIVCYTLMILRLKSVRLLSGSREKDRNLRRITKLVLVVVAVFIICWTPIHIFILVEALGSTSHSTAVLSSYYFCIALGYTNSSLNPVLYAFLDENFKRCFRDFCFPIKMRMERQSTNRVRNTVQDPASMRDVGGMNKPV
- assay_info: Activity at rat kappa opioid receptor expressed in CHO cells assessed as inhibition of adenylyl cyclase activity at 10 uM relative to Dyn A-(1-13)NH2
- Assay type: functional, cell-based
Consider the following compounds; for each one, report its inhibition.
Please give a number only; it is taken to be in %.

Inquiry: Which measured inhibition value corresponds to CC[C@H](C)[C@H](NC(=O)[C@H](CCCNC(=N)N)N(C)C(=O)[C@H](CCCNC(=N)N)NC(=O)[C@H](CC(C)C)NC(=O)[C@H](Cc1ccccc1)NC(=O)CNC(=O)CNC(=O)[C@H](Cc1ccc(O)cc1)NCc1ccccc1)C(=O)N[C@@H](CCCNC(=N)N)C(=O)N1CCC[C@@H]1C(=O)N[C@@H](CCCCN)C(N)=O ?
Reply text: 70

Inquiry: Which measured inhibition value corresponds to CC(C)C[C@H](NC(=O)[C@H](Cc1ccccc1)NC(=O)CNC(=O)CNC(=O)[C@H](Cc1ccc(O)cc1)NCc1ccccc1)C(=O)N[C@@H](CCCNC(=N)N)C(=O)N(C)[C@@H](CCCNC(=N)N)C(=O)N[C@H](C)C(=O)N[C@@H](CCCNC(=N)N)C(=O)N1CCC[C@H]1C(=O)N[C@@H](CCCCN)C(N)=O ?
Reply text: 70

Inquiry: Which measured inhibition value corresponds to CC(C)C[C@H](NC(=O)[C@H](Cc1ccccc1)NC(=O)CNC(=O)CNC(=O)[C@H](Cc1ccc(O)cc1)NCc1ccccc1)C(=O)N[C@@H](CCCNC(=N)N)C(=O)N[C@@H](CCCNC(=N)N)C(=O)N[C@H](C)C(=O)N[C@@H](CCCNC(=N)N)C(=O)N1CCC[C@@H]1C(=O)N[C@@H](CCCCN)C(N)=O ?
Reply text: 70
